Listing: IC50 of selected molecules
target-or-system: hERG channel (Homo sapiens, UniProt Q12809)
Sequence (Q12809 whole entry): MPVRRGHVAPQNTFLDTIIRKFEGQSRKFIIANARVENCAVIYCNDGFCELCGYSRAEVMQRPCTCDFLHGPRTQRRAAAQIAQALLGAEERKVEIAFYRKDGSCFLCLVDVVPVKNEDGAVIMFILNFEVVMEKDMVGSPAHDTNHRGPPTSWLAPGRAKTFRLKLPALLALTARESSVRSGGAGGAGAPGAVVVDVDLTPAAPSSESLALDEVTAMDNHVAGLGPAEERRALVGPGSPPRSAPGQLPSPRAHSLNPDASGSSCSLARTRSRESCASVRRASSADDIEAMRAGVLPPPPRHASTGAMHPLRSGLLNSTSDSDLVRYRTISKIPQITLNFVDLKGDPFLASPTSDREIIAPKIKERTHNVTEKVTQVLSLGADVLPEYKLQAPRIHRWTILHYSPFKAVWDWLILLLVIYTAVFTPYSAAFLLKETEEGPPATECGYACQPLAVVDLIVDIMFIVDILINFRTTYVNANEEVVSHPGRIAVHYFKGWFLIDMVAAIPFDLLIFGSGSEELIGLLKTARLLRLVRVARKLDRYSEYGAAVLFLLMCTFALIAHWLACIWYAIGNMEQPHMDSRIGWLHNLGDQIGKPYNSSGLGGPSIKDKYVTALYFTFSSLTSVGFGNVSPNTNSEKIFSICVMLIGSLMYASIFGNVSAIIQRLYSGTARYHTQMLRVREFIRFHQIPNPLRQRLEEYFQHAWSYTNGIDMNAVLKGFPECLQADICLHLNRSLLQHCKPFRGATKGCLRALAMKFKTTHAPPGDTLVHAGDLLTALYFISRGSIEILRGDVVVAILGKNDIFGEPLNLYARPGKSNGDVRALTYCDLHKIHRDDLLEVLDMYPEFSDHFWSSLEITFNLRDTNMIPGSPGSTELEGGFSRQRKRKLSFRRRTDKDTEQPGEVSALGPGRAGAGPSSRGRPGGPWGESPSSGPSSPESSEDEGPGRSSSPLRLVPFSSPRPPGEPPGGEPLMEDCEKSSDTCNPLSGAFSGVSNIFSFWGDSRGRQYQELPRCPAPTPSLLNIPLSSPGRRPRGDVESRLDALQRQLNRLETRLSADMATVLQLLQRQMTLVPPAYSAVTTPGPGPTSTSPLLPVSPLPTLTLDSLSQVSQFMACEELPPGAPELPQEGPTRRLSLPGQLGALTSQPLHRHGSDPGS
procedure-summary: cell-based
experimental-endpoint: IC50

>>> observed_value("NC[C@@H](O)CN1C[C@H](c2c(O)ccc(Cl)c2Cl)CC1=O (single isomer, unassigned; isomer 1)")
"> 100 µM"
>>> observed_value("C[C@H]1[C@H](c2c(O)ccc(Cl)c2Cl)NC(=O)N1CCCO (relative stereo)")
"> 30 µM"
>>> observed_value("CC1[C@@H](c2c(O)ccc(Cl)c2Cl)CC(=O)N1C1CNC1 (stereo in doubt)")
"> 100 µM"
>>> observed_value("O=C1N[C@@H](c2c(O)ccc(Cl)c2Cl)CN1CCCO")
"> 100 µM"

----------
Listing: IC50 of selected compounds
target-or-system: hERG channel (Homo sapiens)
procedure-summary: cell-based
experimental-endpoint: IC50

>>> observed_value("O=C1N[C@@H](c2c(O)ccc(Cl)c2Cl)CN1C[C@H](O)CO")
"> 100 µM"
>>> observed_value("C[C@@H](CO)N1C[C@H](c2c(O)ccc(Cl)c2Cl)CC1=O (single isomer, unassigned; isomer 2)")
"> 100 µM"
>>> observed_value("C[C@@H]1C(=O)N(C2CNC2)C[C@@H]1c1c(O)ccc(Cl)c1Cl (single isomer, unassigned; isomer 4)")
"> 100 µM"
>>> observed_value("O=C1CC[C@@H](c2c(O)ccc(Cl)c2Cl)CN1[C@@H]1CCNC1 (single isomer, unassigned)")
"> 30 µM"
>>> observed_value("O=C1C[C@@H](c2c(O)ccc(Cl)c2Cl)CN1CCCO")
"> 30 µM"
>>> observed_value("O=C1C[C@@H](c2c(O)ccc(Cl)c2Cl)CN1[C@H]1C[C@H](CO)C1 (single isomer, unassigned; isomer 1)")
"> 30 µM"
>>> observed_value("C[C@@H](O)CN1C[C@H](c2c(O)ccc(Cl)c2Cl)CC1=O")
"> 30 µM"
>>> observed_value("O=C1C[C@@H](c2c(O)ccc(Cl)c2Cl)CN1[C@H]1CCNC1 (single isomer, unassigned)")
"> 30 µM"
>>> observed_value("O=C1C[C@@H](c2c(O)ccc(Cl)c2Cl)CN1CC1(CO)CNC1")
"> 100 µM"
>>> observed_value("O=C1C[C@@H](c2c(O)ccc(Cl)c2Cl)CN1[C@H]1C[C@@H](CO)C1 (single isomer, unassigned; isomer 2)")
"> 30 µM"
>>> observed_value("O=C1C[C@@H](c2c(O)ccc(Cl)c2Cl)CN1c1ccncc1")
"> 10 µM"
>>> observed_value("O=C1C[C@@H](c2c(O)ccc(Cl)c2Cl)CN1C1COC1")
"> 30 µM"
>>> observed_value("O=C1C[C@@H](c2c(O)ccc(Cl)c2Cl)CN1CC1CNC1")
"> 100 µM"
>>> observed_value("Cc1ncc(N2C[C@H](c3c(O)ccc(Cl)c3Cl)CC2=O)s1")
"> 100 µM"
>>> observed_value("Cn1cnc(N2C[C@H](c3c(O)ccc(Cl)c3Cl)CC2=O)n1")
"> 100 µM"
>>> observed_value("N[C@@H]1C(=O)N(CCO)C[C@@H]1c1c(O)ccc(Cl)c1Cl")
"> 100 µM"

----------
target-or-system: hERG channel (Homo sapiens, UniProt Q12809)
procedure-summary: cell-based
pIC50: −log10 of the molar value.
experimental-endpoint: pIC50

>>> observed_value("O=C1C[C@@H](c2c(O)ccc(Cl)c2Cl)CN1c1cn[nH]c1 [Compound 58]")
"< 4.52"
>>> observed_value("CC(CO)N1C[C@H](c2c(O)ccc(Cl)c2Cl)CC1=O (single isomer, unassigned; isomer 1) [Compound 38]")
"< 4.52"
>>> observed_value("CC1[C@H](c2c(O)ccc(Cl)c2Cl)CC(=O)N1CCO (stereo in doubt) [Compound 81]")
"< 4.52"

----------
Listing: pIC50 of selected molecules
target-or-system: hERG channel (Homo sapiens, UniProt Q12809)
procedure-summary: cell-based
pIC50: −log10 of the molar value.
experimental-endpoint: pIC50

>>> observed_value("O=C1C[C@@H](c2c(O)ccc(Cl)c2Cl)CN1C[C@H]1C[C@@H](O)C1 (single isomer, unassigned; isomer 2)")
"< 4.52"
>>> observed_value("O=C1C[C@@H](c2c(O)ccc(Cl)c2Cl)CN1c1cnoc1")
"< 4.00"
>>> observed_value("Nc1cc(N2C[C@H](c3c(O)ccc(Cl)c3Cl)CC2=O)ccn1")
"< 6.00"
>>> observed_value("NC(=O)CN1C[C@H](c2c(O)ccc(Cl)c2Cl)CC1=O")
"< 4.00"
>>> observed_value("NCC(O)CN1C[C@H](c2c(O)ccc(Cl)c2Cl)CC1=O (single isomer, unassigned; isomer 2)")
"< 4.00"
>>> observed_value("O=C1C[C@@H](c2c(O)ccc(Cl)c2Cl)CN1[C@H]1C[C@](O)(CO)C1 (single isomer, unassigned; isomer 4)")
"< 4.00"
>>> observed_value("O=C1C[C@@H](c2c(O)ccc(Cl)c2Cl)CN1[C@H]1C[C@@](O)(CO)C1 (single isomer, unassigned; isomer 3)")
"< 4.00"
>>> observed_value("Nc1ccc(N2C[C@H](c3c(O)ccc(Cl)c3Cl)CC2=O)cn1")
"< 5.00"
>>> observed_value("O=C1C[C@@H](c2c(O)ccc(Cl)c2Cl)CN1C[C@H](O)CO")
"< 4.00"
>>> observed_value("Cn1cc(N2C[C@H](c3c(O)ccc(Cl)c3Cl)NC2=O)cn1")
"< 4.52"
>>> observed_value("O=C1C[C@@H](c2c(O)ccc(Cl)c2Cl)CN1C1CC(F)(F)C1")
"< 4.52"
>>> observed_value("O=C1CC(c2c(O)ccc(Cl)c2Cl)CCN1C1CCNC1 (single isomer, unassigned)")
"< 4.52"
>>> observed_value("O=C1O[C@@H](c2c(O)ccc(Cl)c2Cl)CN1CCO (single isomer, unassigned; isomer 2)")
"< 4.00"
>>> observed_value("O=C1C[C@@H](c2c(O)ccc(Cl)c2Cl)CN1C[C@H]1C[C@H](O)C1 (single isomer, unassigned; isomer 1)")
"< 4.52"
>>> observed_value("O=C1C[C@@H](c2c(O)ccc(Cl)c2Cl)CN1C1CCOCC1")
"< 4.52"
>>> observed_value("O=C1N[C@@H](c2c(O)ccc(Cl)c2Cl)CN1CCO")
"< 4.00"

----------
Listing: IC50 of selected compounds
target-or-system: Kv1.3 potassium channel (Homo sapiens, UniProt P22001)
Construct: expressed in transfected cells
Sequence (P22001 whole entry): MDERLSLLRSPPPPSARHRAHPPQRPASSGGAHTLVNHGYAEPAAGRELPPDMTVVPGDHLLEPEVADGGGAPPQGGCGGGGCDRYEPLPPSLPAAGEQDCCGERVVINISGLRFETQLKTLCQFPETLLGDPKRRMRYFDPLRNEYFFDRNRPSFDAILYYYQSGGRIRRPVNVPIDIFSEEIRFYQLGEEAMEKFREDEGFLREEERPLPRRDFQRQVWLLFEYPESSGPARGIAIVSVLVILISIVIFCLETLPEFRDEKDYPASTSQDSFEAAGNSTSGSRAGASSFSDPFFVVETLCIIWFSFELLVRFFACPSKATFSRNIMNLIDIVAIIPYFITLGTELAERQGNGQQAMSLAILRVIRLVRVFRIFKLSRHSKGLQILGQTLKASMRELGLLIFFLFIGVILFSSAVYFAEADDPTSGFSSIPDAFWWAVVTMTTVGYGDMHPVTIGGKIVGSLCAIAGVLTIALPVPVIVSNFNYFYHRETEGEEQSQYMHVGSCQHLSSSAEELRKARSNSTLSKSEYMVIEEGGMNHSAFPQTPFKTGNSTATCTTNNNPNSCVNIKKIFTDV
procedure-summary: Kv1.3 potassium channel blocker activity, automated whole-cell patch clamp (Patchliner)
Format: cell-based
conditions: CHO-K1 cells stably expressing Kv1.3; whole-cell current inhibition, Hill fit; read-out: Kv1.3 IC50
experimental-endpoint: IC50

>>> observed_value("Cn1cc(N2C[C@H](c3c(O)ccc(Cl)c3Cl)CC2=O)cn1")
"< 100 nM"
>>> observed_value("COCCCN1C[C@H](c2c(O)ccc(Cl)c2Cl)CC1=O")
"< 100 nM"
>>> observed_value("Cn1cnc(N2C[C@H](c3c(O)ccc(Cl)c3Cl)CC2=O)n1")
"< 1000 nM"
>>> observed_value("Cc1cc(N2C[C@H](c3c(O)ccc(Cl)c3Cl)CC2=O)sn1")
"< 1000 nM"
>>> observed_value("NCCCN1C[C@H](c2c(O)ccc(Cl)c2Cl)CC1=O")
"< 10 nM"

----------
target-or-system: hERG channel (Homo sapiens)
procedure-summary: cell-based
pIC50: −log10 of the molar value.
experimental-endpoint: pIC50

>>> observed_value("COCCCN1C[C@H](c2c(O)ccc(Cl)c2Cl)CC1=O")
"< 5.00"
>>> observed_value("O=C1CO[C@H](c2c(O)ccc(Cl)c2Cl)CN1CCO (single isomer, unassigned; isomer 1)")
"< 4.00"
>>> observed_value("COCCN1C[C@H](c2c(O)ccc(Cl)c2Cl)CC1=O")
"< 4.52"
>>> observed_value("CC(O)(CO)CN1C[C@H](c2c(O)ccc(Cl)c2Cl)CC1=O (stereo partly drawn)")
"< 4.00"
>>> observed_value("N[C@H]1C(=O)N(C2CNC2)C[C@@H]1c1c(O)ccc(Cl)c1Cl")
"< 4.00"
>>> observed_value("O=C1C[C@@H](c2c(O)ccc(Cl)c2Cl)CN1C[C@@H](O)CO")
"< 4.00"
>>> observed_value("O=C1N[C@@H](c2c(O)ccc(Cl)c2Cl)CCN1[C@@H]1CCNC1 (single isomer, unassigned)")
"< 5.00"
>>> observed_value("Cn1cc(CN2C[C@H](c3c(O)ccc(Cl)c3Cl)CC2=O)cn1")
"< 4.52"
>>> observed_value("Cn1ccc(N2C[C@H](c3c(O)ccc(Cl)c3Cl)CC2=O)cc1=O")
"< 4.00"

----------
target-or-system: Kv1.3 potassium channel (Homo sapiens)
Construct: expressed in transfected cells
procedure-summary: Kv1.3 potassium channel blocker activity, automated whole-cell patch clamp (Patchliner)
Type: cell-based
conditions: Kv1.3 IC50, CHO-K1 cells stably expressing Kv1.3; whole-cell current inhibition, Hill fit
experimental-endpoint: IC50

>>> observed_value("NC(=O)CN1C[C@H](c2c(O)ccc(Cl)c2Cl)CC1=O [Compound 34]")
"< 100 nM"

FYI, the data here is from patent US20230373952A1.
